sequences and their reported shrunken log2 fold change
# System: Escherichia coli TOP10;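 note: peptides expressed intracellularly from a pBAD plasmid library in pooled LB shake-flask culture, induced with 0.3% L-arabinose, DNA abundance read by NGS, three biological replicates, DESeq2 with apeglm shrinkage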
# procedure_text: shrunken log2 fold change of peptide-encoding DNA abundance (4.5 h post-induction vs induction); higher = less antimicrobial activity (less host growth inhibition)
# experimental_setup: time post-induction: 4.5 h; library: site-saturation at positions 5, 18, 19, 20

Tell me its shrunken log2 fold change given `RRIRVRPPRLPRPRPRPLNPPRP` as the entry.
-0.113

Tell me its shrunken log2 fold change given `RRIRNRPPRLPRPRPRPMRTPRP` as the entry.
0.312

Tell me its shrunken log2 fold change given `RRIRQRPPRLPRPRPRPGQCPRP` as the entry.
-0.156

Tell me its shrunken log2 fold change given `RRIRIRPPRLPRPRPRPNKYPRP` as the entry.
-0.932

Tell me its shrunken log2 fold change given `RRIRHRPPRLPRPRPRPGTEPRP` as the entry.
-0.0642

Tell me its shrunken log2 fold change given `RRIRPRPPRLPRPRPRPNRAPRP` as the entry.
0.371

Tell me its shrunken log2 fold change given `RRIRLRPPRLPRPRPRPNAPPRP` as the entry.
0.0456

Tell me its shrunken log2 fold change given `RRIRHRPPRLPRPRPRPGLLPRP` as the entry.
-0.0335

Tell me its shrunken log2 fold change given `RRIRERPPRLPRPRPRPTMYPRP` as the entry.
-0.162

Tell me its shrunken log2 fold change given `RRIRKRPPRLPRPRPRPHNKPRP` as the entry.
-0.0934

Tell me its shrunken log2 fold change given `RRIRWRPPRLPRPRPRPCWAPRP` as the entry.
0.197

Tell me its shrunken log2 fold change given `RRIRIRPPRLPRPRPRPQNRPRP` as the entry.
-0.386

Tell me its shrunken log2 fold change given `RRIRDRPPRLPRPRPRPCRHPRP` as the entry.
0.344

Tell me its shrunken log2 fold change given `RRIRQRPPRLPRPRPRPIVFPRP` as the entry.
0.161

Tell me its shrunken log2 fold change given `RRIRFRPPRLPRPRPRPMLNPRP` as the entry.
-0.574
